System: trypanothione synthetase of T. b. brucei (TbTryS)
assay comment: TryS activity screening assay on recombinant TbTryS
Type: biochemical
measurement parameters: % activity at 30 μM compound, errors 2 SD
Exercise: state measured TbTryS activity [% at 30 μM] for each of the molecules provided.
The response must be a number in % with no trailing unit.

Inquiry: Which TbTryS activity [% at 30 μM] value is on record for CNCCNC(=O)CN1C(=O)Cc2c([nH]c3ccc(I)cc23)-c2ccc(Cl)cc21 [1f] ?
Reply text: 82.9

Inquiry: Which TbTryS activity [% at 30 μM] value is on record for CNCCNC(=O)CN1C(=O)Cc2c([nH]c3ccc(C(F)(F)F)cc23)-c2ccc(Cl)cc21 [1h] ?
Reply text: 87.8

Inquiry: Which TbTryS activity [% at 30 μM] value is on record for CN(CCNC(=O)CN1C(=O)Cc2c([nH]c3ccc(Cl)cc23)-c2ccc(Cl)cc21)C(=O)OC(C)(C)C [10b] ?
Reply text: 94.2

Inquiry: Which TbTryS activity [% at 30 μM] value is on record for O=C(O)CN1C(=O)Cc2c([nH]c3ccc(I)cc23)-c2ccc(Cl)cc21 [9a] ?
Reply text: 102.9

Inquiry: Which TbTryS activity [% at 30 μM] value is on record for O=C(O)CN1C(=O)Cc2c([nH]c3ccc(Cl)cc23)-c2ccc(Cl)cc21 [9b] ?
Reply text: 104.0

Inquiry: Which TbTryS activity [% at 30 μM] value is on record for O=C(O)CN1C(=O)Cc2c([nH]c3ccc(C(F)(F)F)cc23)-c2ccc(Cl)cc21 [9c] ?
Reply text: 110.2

Inquiry: Which TbTryS activity [% at 30 μM] value is on record for CNCCNC(=O)CN1C(=O)Cc2c([nH]c3ccc(Cl)cc23)-c2ccc(Cl)cc21 [1g] ?
Reply text: 82.8

Inquiry: Which TbTryS activity [% at 30 μM] value is on record for CN(CCNC(=O)CN1C(=O)Cc2c([nH]c3ccc(C(F)(F)F)cc23)-c2ccc(Cl)cc21)C(=O)OC(C)(C)C [10c] ?
Reply text: 95.2

Inquiry: Which TbTryS activity [% at 30 μM] value is on record for CN(CCNC(=O)CN1C(=O)Cc2c([nH]c3ccc(I)cc23)-c2ccc(Cl)cc21)C(=O)OC(C)(C)C [10a] ?
Reply text: 90.2

The measured values listed here are drawn from paper PMC10688702.
